Test system: VDR homodimer (NR concentration 270 nM)
PROTOCOL DESCRIPTION: PBM binding z-score (relative to random genomic background probes); higher = stronger binding; sequences stand for … in GC…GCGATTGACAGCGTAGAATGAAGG
Can you tell me PBM binding z-score for the items I'm about to list?

- SEQ STRING: "TCGAGTCGGTTACGGGGGCATTCAGGGATGAAGA"
  STUDY TARGET: "VDR homodimer (NR concentration 270 nM)"
  PBM binding z-score: 2.23
- SEQ STRING: "CTATGTAGGTGAAGGGGGTCATTCAGTTTGAAAG"
  STUDY TARGET: "VDR homodimer (NR concentration 270 nM)"
  PBM binding z-score: 5.55
- SEQ STRING: "CGGCCAAGGTCAAAGGTCAGTGAAGAGATGACGG"
  STUDY TARGET: "VDR homodimer (NR concentration 270 nM)"
  PBM binding z-score: 3.31
- SEQ STRING: "TAGCCTAGGTCAGATCGGGCGAGTATACGCTATA"
  STUDY TARGET: "VDR homodimer (NR concentration 270 nM)"
  PBM binding z-score: -0.405
- SEQ STRING: "ACTCGGAGGACAAAGGTCACAGCTACGCCAGTGA"
  STUDY TARGET: "VDR homodimer (NR concentration 270 nM)"
  PBM binding z-score: 2.46
- SEQ STRING: "CGAACTAGGTCGAAGGACAGTGAAAGGCGACGTA"
  STUDY TARGET: "VDR homodimer (NR concentration 270 nM)"
  PBM binding z-score: -0.311

Items follow; give PBM binding z-score for each.
1. CTATATAGGTTAAGGGGGTCATTCAGTTTGAAAG
2. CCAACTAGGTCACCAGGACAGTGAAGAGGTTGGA
3. CAAAATAGGTCAAGGTCAAAGTCGGTTTGTGCCA
4. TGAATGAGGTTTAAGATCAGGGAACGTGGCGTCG
5. CGAATTAGGTCACCAGGACAGTGAAGAGGTTGGA
6. ACTAGCAGGCCAAAGGTCACTCAAGATTAGTCCG

### Response
1. 6.17
2. 0.883
3. 3.72
4. -0.231
5. 0.575
6. 1.58
